We begin with a simple list: items and their reported IC50.
system: A/WSN/33-M2-N31S; type: cell-based, Influenza virus A/WSN/33 (H1N1); details: read-out: IC50 A/WSN/33-M2-N31S
The response must be a number in nM with no trailing unit.

A selection of reference data follows.
Given CCCC1(N)C2CC3CC(C2)CC1C3 (stereo not drawn) , respond with its IC50. 340

Give the value of IC50 reported for the following: CN1CCCC12C1CC3CC(C1)CC2C3 (stereo not drawn) 900

Using known records, supply IC50 for CCC1(N)C2CC3CC(C2)CC1C3 (stereo not drawn) 340

Kindly indicate its recorded IC50. Item: CC12CC3CC(CC(C3)C13CCCN3)C2 (stereo not drawn) 6120

Report measured IC50; entry is `NC1(C23CC4CC(CC(C4)C2)C3)CCCC1` 4340

More entries:
Please report IC50 for the following compound: NC12CC3CC(CC(C3)C1)C2 [Compound 1, Amantadine, reference compound] 270

# return recorded IC50 for input NC1C2CC3CC(C2)CC1C3 (stereo not drawn) 420

Provide only the value of recorded IC50 for CC1(N)C2CC3CC(C2)CC1C3 (stereo not drawn) 330

Report IC50, nothing else, for this compound: C1CNC2(C1)C1CC3CC(C1)CC2C3 (stereo not drawn) 340
